Item-by-item account of Percent Effect
# System name: Tyrosyl-tRNA synthetase, putative (Trypanosoma cruzi (strain CL Brener))
# Measurement description: Trypanosoma cruzi tyrosyl tRNA synthetase (TcYRS) _High Tyrosine SOP; further: in the data most compounds retested in dose-response had high values
# Type: functional
# Set-up: scale not given: direction of the effect not stated beside the values
# Recorded conditions: 30 µM
Give your result in % as a bare value.

Here is how some compounds turned out for Percent Effect.
Compound | System name | Quantitative readout
CS(=O)(=O)NCC1CCCN(C(=O)COCc2ccccc2)C1 (stereo not drawn) | Tyrosyl-tRNA synthetase, putative (Trypanosoma cruzi (strain CL Brener)) | 0.478
Cc1ccoc1-c1nnc(CN2CCCC(Cn3cncn3)C2)o1 (stereo not drawn) | Tyrosyl-tRNA synthetase, putative (Trypanosoma cruzi (strain CL Brener)) | 3.35
O=C1CO[C@@H]2CN(Cc3cccs3)C[C@H]2N1CC1CC1 | Tyrosyl-tRNA synthetase, putative (Trypanosoma cruzi (strain CL Brener)) | 13.2

INPUT: Could you please provide reported Percent Effect for `Cn1nc2c(cc1=O)CN(Cc1nnc(-c3ccco3)o1)CC2` ? Thanks!
OUTPUT: 4.31

INPUT: Could you please provide reported Percent Effect for CC(NC(=O)CN(C)S(C)(=O)=O)c1nnc2n1CCCCC2 (stereo not drawn) ? Thanks!
OUTPUT: -0.98

---

# System name: Ubiquitin-activating enzyme e1, putative (Leishmania donovani (strain BPK282A1)) (UniProt E9BSI1)
# Sequence (whole entry): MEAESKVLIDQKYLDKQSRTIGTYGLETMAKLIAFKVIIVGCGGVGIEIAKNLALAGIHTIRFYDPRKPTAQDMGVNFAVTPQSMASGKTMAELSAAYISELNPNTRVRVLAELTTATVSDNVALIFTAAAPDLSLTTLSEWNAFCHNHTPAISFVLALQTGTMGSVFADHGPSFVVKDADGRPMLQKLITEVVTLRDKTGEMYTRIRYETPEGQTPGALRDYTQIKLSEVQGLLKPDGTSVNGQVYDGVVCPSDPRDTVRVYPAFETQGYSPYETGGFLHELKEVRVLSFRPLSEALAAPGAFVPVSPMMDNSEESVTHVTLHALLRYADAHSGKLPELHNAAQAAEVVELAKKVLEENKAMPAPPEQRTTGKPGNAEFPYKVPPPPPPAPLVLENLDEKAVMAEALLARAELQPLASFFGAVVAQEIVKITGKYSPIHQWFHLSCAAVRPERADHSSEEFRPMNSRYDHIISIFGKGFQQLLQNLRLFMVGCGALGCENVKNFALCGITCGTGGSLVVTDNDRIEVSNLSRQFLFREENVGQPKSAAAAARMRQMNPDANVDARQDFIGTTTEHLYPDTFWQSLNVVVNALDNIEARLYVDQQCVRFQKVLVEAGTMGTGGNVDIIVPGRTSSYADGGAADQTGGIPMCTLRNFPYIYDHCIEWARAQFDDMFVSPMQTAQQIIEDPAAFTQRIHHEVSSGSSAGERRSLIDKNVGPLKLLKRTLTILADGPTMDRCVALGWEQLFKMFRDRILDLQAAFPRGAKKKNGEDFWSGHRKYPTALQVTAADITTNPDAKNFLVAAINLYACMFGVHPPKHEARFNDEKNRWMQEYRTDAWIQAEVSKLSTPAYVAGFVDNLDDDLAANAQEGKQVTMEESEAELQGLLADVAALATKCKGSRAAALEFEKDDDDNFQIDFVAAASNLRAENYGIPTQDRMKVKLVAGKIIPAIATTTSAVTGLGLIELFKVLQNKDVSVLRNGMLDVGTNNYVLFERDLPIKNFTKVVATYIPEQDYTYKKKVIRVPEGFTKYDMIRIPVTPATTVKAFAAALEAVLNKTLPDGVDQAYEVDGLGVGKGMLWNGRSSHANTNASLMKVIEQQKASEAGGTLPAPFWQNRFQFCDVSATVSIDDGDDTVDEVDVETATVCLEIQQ
# Measurement description: Leishmania donovani Ubiquitin Activating Enzyme (LdE1)
# Assay type: functional
# Set-up: scale not given: direction of the effect not stated beside the values
# Recorded conditions: 30 µM
Potency and affinity values are given separately.
Item-by-item account of Percent Effect
Give your result in % as a bare value.

Molecule | Quantity measured | Quantitative readout
CC(Cn1cccn1)NC(=O)NCc1ccccn1 (centres undefined) | Percent Effect | 8

INPUT: Could you please provide reported Percent Effect for `COC(=O)c1cccn1C1CCN(CC(=O)NC2CCCCC2)CC1` ? Thanks!
OUTPUT: 15.6

INPUT: Could you please provide reported Percent Effect for Cc1cnn(CC2CCCN2CC(=O)Nc2cc(C(C)(C)C)no2)c1 (centres undefined) ? Thanks!
OUTPUT: 13

INPUT: Could you please provide reported Percent Effect for N#Cc1cccc(N2CC3(CCN(C(=O)c4cccnc4)C3)CC2=O)c1 (centres undefined) ? Thanks!
OUTPUT: 9.09

---

# System name: AMP-activated protein kinase, AMPK (Homo sapiens) (UniProt P54646+O43741+P54619+Q9UGJ0+Q9Y478+Q13131+Q9UGI9)
# Measurement description: AMP-dependent Kinase enzyme assay. An in vitro enzyme assay that detects ADP turnover that is directly proportional to AMPK activity. This uses naive AMPK that is activated during the assay with MK-8722
# Assay type: functional
# Parameters: scale not given: direction of the effect not stated beside the values
# Recorded conditions: 30 µM
Quantity measured: Percent Effect (%)
Give your result in % as a bare value.

Molecule | Quantitative readout
COCCN1CC(=O)N2CC[C@@H](O)C[C@H]2C1=O | -8.25

INPUT: Could you please provide reported Percent Effect for Cc1nc[nH]c1CN1CCC(C2CCN(CCc3ccccc3)C2)CC1 (centres undefined) ? Thanks!
OUTPUT: -0.168

INPUT: Could you please provide reported Percent Effect for `NC(=O)COc1cccc(Cn2cc(Br)cn2)c1` ? Thanks!
OUTPUT: 3.8

INPUT: Could you please provide reported Percent Effect for `Cn1ccnc1-c1cn(CCc2nnc(N)s2)nn1` ? Thanks!
OUTPUT: -14.9

---

# System name: Tyrosyl-tRNA synthetase, putative (Trypanosoma cruzi (strain CL Brener))
# Sequence (whole entry): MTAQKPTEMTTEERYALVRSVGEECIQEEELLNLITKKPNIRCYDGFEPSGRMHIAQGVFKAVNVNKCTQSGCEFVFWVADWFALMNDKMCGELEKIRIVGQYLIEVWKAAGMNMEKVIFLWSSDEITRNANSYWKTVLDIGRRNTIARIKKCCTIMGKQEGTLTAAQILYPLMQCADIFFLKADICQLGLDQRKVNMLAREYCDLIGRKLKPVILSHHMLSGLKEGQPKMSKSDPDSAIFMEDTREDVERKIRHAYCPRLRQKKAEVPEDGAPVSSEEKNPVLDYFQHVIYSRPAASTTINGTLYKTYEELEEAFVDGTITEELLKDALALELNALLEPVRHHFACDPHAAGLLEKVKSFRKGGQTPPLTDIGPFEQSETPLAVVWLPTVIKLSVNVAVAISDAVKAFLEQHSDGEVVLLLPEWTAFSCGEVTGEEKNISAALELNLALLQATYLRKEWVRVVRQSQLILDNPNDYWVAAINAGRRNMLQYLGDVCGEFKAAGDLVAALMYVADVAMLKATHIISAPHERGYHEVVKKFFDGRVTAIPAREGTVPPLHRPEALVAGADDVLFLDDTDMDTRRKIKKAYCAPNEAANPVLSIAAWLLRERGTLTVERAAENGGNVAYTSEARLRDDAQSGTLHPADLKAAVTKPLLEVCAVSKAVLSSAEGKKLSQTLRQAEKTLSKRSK
# Measurement description: Trypanosoma cruzi tyrosyl tRNA synthetase (TcYRS) SOP
# Assay type: functional
# Design: scale not given: direction of the effect not stated beside the values
# Recorded conditions: 30 µM
Quantity measured: Percent Effect

Here is how some compounds turned out for Percent Effect.
Compound | Result
CO[C@@H]1CCN(C(=O)c2ccccn2)[C@H]1Cc1ccccc1 | 10%
CC(C)CN(Cc1nc2c(cnn2C)c(=O)[nH]1)C(C)C | 18.1%
COc1ccccc1CCN(C)C(=O)NC(C)c1nncn1C (centres undefined) | 5.13%

Consider the additional compound presented here.
INPUT: Could you please provide reported Percent Effect for CNc1snc(C)c1C(=O)N1CCCC(n2nc(C)cc2C)C1 (centres undefined) ? Thanks!
OUTPUT: 15.4%

---

# System name: AMP-activated protein kinase, AMPK (Homo sapiens) (UniProt P54646+O43741+P54619+Q9UGJ0+Q9Y478+Q13131+Q9UGI9)
# Measurement description: AMP-dependent Kinase enzyme assay. An in vitro enzyme assay that detects ADP turnover that is directly proportional to AMPK activity. This uses naive AMPK that is activated during the assay with MK-8722
# Type: functional
# Parameters: scale not given: direction of the effect not stated beside the values
# Recorded conditions: 30 µM
Quantity measured: Percent Effect (%)
Give your result in % as a bare value.

Compound | Scale unit | Percent Effect
Cc1cc(=O)n(CCNC(=O)c2ccccc2Cl)cn1 | % | -4.73
CC(Oc1cccc(Cl)c1)C(=O)Nc1cnn(CCN(C)C)c1 (configuration not stated) | % | -7.28
CCc1ccc(N2CCC(NS(=O)(=O)N(CC)CC)CC2)cc1 | % | 1.78
CC1CCN(CC(=O)N(C)CCc2noc(C3CC3)n2)C1=O (configuration not stated) | % | -1.6
N#CC1(C(=O)N2C[C@H]3CC[C@@H]2CN(Cc2ccncc2)C3)CCOCC1 | % | -2.51
c1cc(CNCc2ccc(-n3cncn3)nc2)cc(OC2CCCC2)c1 | % | 9.46

INPUT: Could you please provide reported Percent Effect for `N#Cc1ccc(CNCCc2cc(F)cc3c2OCOC3)cc1` ? Thanks!
OUTPUT: 4.17

INPUT: Could you please provide reported Percent Effect for `Cc1cc(C)nc(NC2CCN(CCOC(C)C)CC2)n1` ? Thanks!
OUTPUT: 7.53

INPUT: Could you please provide reported Percent Effect for COc1ccc(CN(Cc2ccsc2)CC2CCCO2)cn1 (configuration not stated) ? Thanks!
OUTPUT: 5.75

INPUT: Could you please provide reported Percent Effect for `CC(=O)Cn1c(C)cc(=O)c2cc(F)ccc21` ? Thanks!
OUTPUT: 10.5

INPUT: Could you please provide reported Percent Effect for `CCc1cc(NCCCNS(C)(=O)=O)nc(-c2ccccn2)n1` ? Thanks!
OUTPUT: -7.82

INPUT: Could you please provide reported Percent Effect for Cc1cccc(C(C(=O)NC(C)(C)CN2CCCC2)N(C)C)c1 (configuration not stated) ? Thanks!
OUTPUT: -15.9
